# Tested on: CAKI-1 renal
# protocol_details: NCI-60 one-dose screen, 48 h (100 = growth as untreated, 0 = no growth, -100 = all killed)
# test_parameters: 10 µM
The panel holds about 83,000 compounds, 20% with a hit somewhere; the sample as a whole holds those more often. Activity calls are given as the source filed them. How the source made its calls: active means growth percent below 10; inactive means the rest.
Listed here are compounds together with their documented growth.

Answered examples (5):
Entry COc1ccc(COC(=O)CC(C)C)cc1 needs its growth filled in; supply it.
98.7% (inactive)

Entry COc1cccc(C(=O)N(c2ccc(F)c(F)c2)C(C(=O)NC(C)(C)C)c2cc3c(C)cc(C)cc3nc2Cl)c1 (stereo unspecified) needs its growth filled in; supply it.
42.9% (inactive)

Entry CCCCC(CC#N)(CCC)CCC needs its growth filled in; supply it.
90.3% (inactive)

Entry Cc1ccc(NS(=O)(=O)c2ccccc2)c(NS(=O)(=O)c2ccccc2)c1 needs its growth filled in; supply it.
93.2% (inactive)

Entry CCCCN(CCCC)c1ccc(C(=NC(C)CCCN(CC)CC)c2ccc(N(C)C)cc2)cc1 (stereo unspecified) needs its growth filled in; supply it.
-5.33% (active)

Further cases:
Entry N#Cc1ncc(-c2cc(F)ccc2F)c(NC2CCCCCC2)n1 needs its growth filled in; supply it.
88.2% (inactive)

Entry O=C(NCCc1nccs1)c1cnc2c(S)cccc2c1 needs its growth filled in; supply it.
19% (inactive)

Entry NC(=O)c1ccc(Br)o1 needs its growth filled in; supply it.
102% (inactive)

This collection of values is drawn from PubChem BioAssay (NCI).
